Test system: HBV viral production from HepAD38 cells
Test: Activity of test compounds on viral production from HepAD38 cells (viral load by qPCR of HBV core sequence in supernatant)
Type: cell-based
Settings: Hepatitis B virus, 120 h, 5 days incubation, HBV DNA in supernatant by qPCR, top concentration 10 μM, read-out: Viral Load EC50 Activity range
pEC50: −log10 of the molar value.
quantityName: pEC50

{"compound": "CN1[C@@H](C(=O)Nc2ccc(F)c(Cl)c2)C[C@@H](c2cccc(F)c2)NS1(=O)=O", "observed": "< 5.30"}
{"compound": "CN1C(C(=O)Nc2ccc(Cl)cc2)CC(c2cccs2)NS1(=O)=O (stereo not drawn)", "observed": "5.30 to 6.00"}
{"compound": "COc1ccc(C2CC(C(=O)Nc3ccc(F)c(Cl)c3)N(C)S(=O)(=O)N2)cc1 (stereo not drawn)", "observed": "> 6.00"}
{"compound": "CN1[C@H](C(=O)Nc2ccc(F)c(Cl)c2)C[C@H](c2cccc(Cl)c2)NS1(=O)=O", "observed": "> 6.00"}
{"compound": "Cc1c(-c2ccc([C@H]3C[C@@H](C(=O)Nc4ccc(F)c(Cl)c4)N(C)S(=O)(=O)N3)s2)cnn1C", "observed": "> 6.00"}
{"compound": "CN1[C@@H](C(=O)Nc2ccc(F)c(Cl)c2)C[C@@H](c2ccc(-c3ccc(NS(C)(=O)=O)cc3)s2)NS1(=O)=O (relative stereo)", "observed": "> 6.00"}
{"compound": "COCCN1C(C(=O)Nc2ccc(F)c(Br)c2)CC(c2nccs2)NS1(=O)=O (racemic)", "observed": "> 6.00"}
{"compound": "CN1[C@@H](C(=O)Nc2ccc(F)c(Cl)c2)C[C@@H](c2ccnn2C)NS1(=O)=O", "observed": "< 5.30"}
{"compound": "CN1C(C(=O)Nc2ccc(F)c(Cl)c2)CC(c2ncc(-c3ccc(F)cn3)s2)NS1(=O)=O (racemic)", "observed": "> 6.00"}
{"compound": "CN1C(C(=O)Nc2ccc(F)c(Cl)c2)CC(c2ccc(-c3cnco3)s2)NS1(=O)=O (racemic)", "observed": "> 6.00"}
{"compound": "C#CCCN1[C@@H](C(=O)Nc2ccc(F)c(Cl)c2)C[C@@H](c2nccs2)NS1(=O)=O", "observed": "< 5.30"}
{"compound": "CN1[C@H](C(=O)Nc2ccc(F)c(Cl)c2)C[C@@H](c2ncc(Br)s2)NS1(=O)=O [HBV-CSU-122-Trans-ISO-II]", "observed": "5.30 to 6.00"}
{"compound": "Cc1ncc([C@H]2C[C@@H](C(=O)Nc3ccc(F)c(Cl)c3)N(C)S(=O)(=O)N2)s1", "observed": "> 6.00"}
{"compound": "CN1C(C(=O)Nc2ccc(F)c(Cl)c2)CC(c2ccc(-c3nncn3C)s2)NS1(=O)=O (racemic)", "observed": "> 6.00"}
{"compound": "CN1[C@H](C(=O)Nc2ccc(F)c(Cl)c2)C[C@H](c2cc(-c3cnn(C)c3)c(Cl)s2)NS1(=O)=O", "observed": "> 6.00"}
